system: Cyclooxygenase; test: Formation of prostaglandin D2 by neutrophils as measure of cyclooxygenase activity (A23187 stimulation, RIA); type: cell-based, Sprague Dawley Ratten; details: read-out: IC50 (µmol/l) PGD2, rat peritoneal neutrophils (carrageenan-elicited), 2x10⁶ cells, A23187 2 µmol/l, 5 min 37°C
quantity-kind: pIC50
To interpret pIC50, take it as minus log10 of a concentration measured in moles per litre.

Some compounds with known pIC50 results, for comparison:
{"given-smiles": "CN1C(C(=O)Nc2cccc(-c3ccc(Oc4ccc(F)cc4)o3)n2)=C(O)c2sc(Cl)cc2S1(=O)=O", "quantity-kind": "pIC50", "observed-value": 5.77}
{"given-smiles": "CN1C(C(=O)Nc2cccc(-c3ccc(-c4ccccc4)cc3)n2)=C(O)c2sc(Cl)cc2S1(=O)=O", "quantity-kind": "pIC50", "observed-value": 5.46}
{"given-smiles": "CN1C(C(=O)Nc2cccc(-c3cc4ccccc4s3)n2)=C(O)c2sc(Cl)cc2S1(=O)=O", "quantity-kind": "pIC50", "observed-value": 7.31}
{"given-smiles": "CN1C(C(=O)Nc2cccc(-c3cccc(Oc4ccc(F)cc4)c3)n2)=C(O)c2sc(Cl)cc2S1(=O)=O", "quantity-kind": "pIC50", "observed-value": 6.35}

QUERY: I'd like to know its pIC50. The compound in question is CN1C(C(=O)Nc2cccc(-c3cc4ccccc4o3)n2)=C(O)c2sc(Cl)c(Cl)c2S1(=O)=O
RESULT: 7.44
